Target: T1, Kj12C N-terminal docking domain (Xenorhabdus stockiae KJ12.1)
T1 construct: Kj12C of Xenorhabdus stockiae KJ12.1, N-terminal docking domain, 63 residues; 15N-labelled for the NMR titrations; also called Kj12C-NDD; source: E. coli BL21-Gold(DE3), purified (HisTrap, Ulp1 cleavage, anion exchange, SEC); not shown: His6-SUMO, N-terminal, cleaved
T1 chain: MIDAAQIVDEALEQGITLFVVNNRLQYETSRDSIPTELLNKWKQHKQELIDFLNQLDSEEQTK
Assay: ITC; 50 µM NDD (or Kj12C construct) in the cell titrated with 1 mM CDD peptide; 20 °C; 50 mM sodium phosphate pH 6.5, 100 mM NaCl; one site binding model; three independent titrations
Settings: both partners purified
pKd: −log10 of the molar value.
Below, each entry is listed with its recorded pKd.

binder: QEYARGEI (source: synthetic peptide (Fmoc solid-phase synthesis, preparative HPLC)) [Kj12B-CDDshort L1564A peptide]
pKd: < 4.00

// switching to the query binder
Consider the binder QEYLRAEI (source: synthetic peptide (Fmoc solid-phase synthesis, preparative HPLC)) [Kj12B-CDDshort G1566A peptide] and give its measured pKd.
< 4.00

Data provenance is paper PMC6195595.
